Compiled literature Ki, tested on D(3) dopamine receptor (Homo sapiens, UniProt P35462).
Sequence (P35462 whole entry): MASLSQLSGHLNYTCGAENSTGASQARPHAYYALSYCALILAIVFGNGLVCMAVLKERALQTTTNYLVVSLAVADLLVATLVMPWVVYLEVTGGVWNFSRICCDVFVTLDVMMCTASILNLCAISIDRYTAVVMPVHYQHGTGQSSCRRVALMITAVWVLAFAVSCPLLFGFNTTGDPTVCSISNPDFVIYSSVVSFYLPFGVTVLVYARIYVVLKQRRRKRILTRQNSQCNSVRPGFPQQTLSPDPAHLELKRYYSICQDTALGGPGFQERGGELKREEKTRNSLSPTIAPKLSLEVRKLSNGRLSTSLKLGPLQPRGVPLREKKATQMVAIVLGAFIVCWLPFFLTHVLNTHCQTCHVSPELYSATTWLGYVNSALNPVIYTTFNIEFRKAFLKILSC
Write the value in nM as a bare number.

- molecule: "CCCN(CCc1ccsc1)CCc1ccsc1"
  measured-parameter: "Ki"
  measurement-units: "nM"
  test-value: 108
- molecule: "CCCN(CCc1cccs1)[C@@H]1CCc2ccc(OC)cc2C1"
  measured-parameter: "Ki"
  measurement-units: "nM"
  test-value: 113
- molecule: "COc1ccccc1N1CCN(CC(O)CCn2cc(-c3ccc4[nH]ccc4c3)nn2)CC1 (racemic)"
  measured-parameter: "Ki"
  measurement-units: "nM"
  test-value: 33.6
- molecule: "C#Cc1cccc2c(CN3CCN(c4ccc(Cl)cc4)CC3)c(C)nn12"
  measured-parameter: "Ki"
  measurement-units: "nM"
  test-value: 17000
- molecule: "CCC1(CC)CC(OCCCNCc2cccc(Cl)c2Cl)(c2ccccn2)CCO1 (stereo not given)"
  measured-parameter: "Ki"
  measurement-units: "nM"
  test-value: 1180

Req: Lab request: please report Ki under test system D(3) dopamine receptor (Homo sapiens, UniProt P35462) for COc1ccccc1N1CCC2(CCN(CCCSc3nnc(-c4ccccc4)n3C)C2)C1 (racemic)
Resp: 24.2

Req: Lab request: please report Ki under test system D(3) dopamine receptor (Homo sapiens, UniProt P35462) for CCc1c(C)c2n(c1C)[B-](F)(F)[N+]1=C3C=CC=C(NCCCCN4CCN(c5cccc(Cl)c5Cl)CC4)N3[B-](F)(F)[N+]1=C2
Resp: 52.1

Req: Lab request: please report Ki under test system D(3) dopamine receptor (Homo sapiens, UniProt P35462) for CN1CCc2cccc3c2C1Cc1ccc(NC(N)=O)cc1-3 (racemic)
Resp: 2460

Req: Lab request: please report Ki under test system D(3) dopamine receptor (Homo sapiens, UniProt P35462) for COc1ccc2[nH]c(C(=O)NCCC(F)CN3CCN(c4cccc(Cl)c4Cl)CC3)cc2c1 (stereo not given)
Resp: 1.5

Req: Lab request: please report Ki under test system D(3) dopamine receptor (Homo sapiens, UniProt P35462) for CS(=O)(=O)c1ccc2c(c1)CCN(CC[C@H]1CC[C@H](NC(=O)/C=C/c3ccccc3C#N)CC1)CC2
Resp: 1.58

Req: Lab request: please report Ki under test system D(3) dopamine receptor (Homo sapiens, UniProt P35462) for CC(C)(C)c1nc(N2CCN(CCCCNC(=O)c3cc4ccccc4s3)CC2)cc(C(F)(F)F)n1
Resp: 2.4

Req: Lab request: please report Ki under test system D(3) dopamine receptor (Homo sapiens, UniProt P35462) for CCCN(CCCCNC(=O)c1ccc(-c2ccccc2)cc1)C1CCc2nc(N)ncc2C1 (stereo not given)
Resp: 0.794

Req: Lab request: please report Ki under test system D(3) dopamine receptor (Homo sapiens, UniProt P35462) for Cc1nn2c(N3CCN(Cc4ccccc4)CC3)cccc2c1CN1CCN(c2ccc(Cl)cc2)CC1
Resp: 270

Req: Lab request: please report Ki under test system D(3) dopamine receptor (Homo sapiens, UniProt P35462) for CN(c1ncccn1)[C@H]1CC[C@H](CCN2CCN(c3ccccc3)CC2)CC1
Resp: 24

Req: Lab request: please report Ki under test system D(3) dopamine receptor (Homo sapiens, UniProt P35462) for COc1ccc2onc(N3CCN(CCCCNC(=O)c4cccc(-c5ncccn5)c4)CC3)c2c1
Resp: 1140

Req: Lab request: please report Ki under test system D(3) dopamine receptor (Homo sapiens, UniProt P35462) for N#Cc1ccc(C(=O)NCc2ccccc2CN2CCc3cc(O)c(O)cc3C2)cc1
Resp: 28

Req: Lab request: please report Ki under test system D(3) dopamine receptor (Homo sapiens, UniProt P35462) for N#Cc1cccc2c(CN3CCN(c4ccc(Cl)cc4)CC3)cnn12
Resp: 26000

Req: Lab request: please report Ki under test system D(3) dopamine receptor (Homo sapiens, UniProt P35462) for CCN(CC)[C@@H]1[C@@H](CO)[C@H]2CN(Cc3ccccc3)[C@H](c3ccccn3)[C@H]21
Resp: 36000

Req: Lab request: please report Ki under test system D(3) dopamine receptor (Homo sapiens, UniProt P35462) for CCCN(CCCCNC(=O)c1ccc(-c2ccccc2)cc1)C1CCc2c(cccc2OS(=O)(=O)C(F)(F)F)C1 (stereo not given)
Resp: 1.58

Req: Lab request: please report Ki under test system D(3) dopamine receptor (Homo sapiens, UniProt P35462) for Clc1cccc(N2CCN(CCCCc3cn(-c4ccc5[nH]ccc5c4)nn3)CC2)c1Cl
Resp: 1

====

Compiled literature pKi, tested on D(3) dopamine receptor (Homo sapiens).
pKi (log units): -log10 of the concentration in mol/L.

Look over these answered cases.
- compound: "Fc1ccc(COC2CCN(Cc3cc4ccc(Cl)cc4[nH]3)CC2)cc1F"
  measured-parameter: "pKi"
  test-value: 6.02
- compound: "C#CC1=CC[C@H](N(CCC)CCCCNC(=O)c2cc3ccccn3n2)CC1"
  measured-parameter: "pKi"
  test-value: 8.49
- compound: "Cc1ccc(OCCNCCCOc2ccccc2)cc1"
  measured-parameter: "pKi"
  test-value: 6.77
- compound: "Cc1ccc2c3c(c(=O)oc2c1)CN(Cc1ccc(F)cc1)CC3"
  measured-parameter: "pKi"
  test-value: 5.66
- compound: "O=C(NCCCCN1CCN(c2cccc3ccccc23)CC1)c1ccccc1"
  measured-parameter: "pKi"
  test-value: 9.05

Req: Lab request: please report pKi under test system D(3) dopamine receptor (Homo sapiens) for COc1ccccc1N1CCN(CC(F)CCNC(=O)c2ccc3c(c2)Cc2ccccc2-3)CC1 (centres undefined)
Resp: 8.00

Req: Lab request: please report pKi under test system D(3) dopamine receptor (Homo sapiens) for CNc1cc(OC)c(C(=O)NC[C@H]2CN(Cc3ccccc3)C[C@@H]2C)cc1Cl
Resp: 6.49

Req: Lab request: please report pKi under test system D(3) dopamine receptor (Homo sapiens) for c1ccc(N2CCN(CCCn3cnc4ccccc43)CC2)cc1
Resp: 5.05

Req: Lab request: please report pKi under test system D(3) dopamine receptor (Homo sapiens) for COc1ccccc1N1CCN(CCCCc2cn(-c3ccc(-c4ccsc4)cc3)nn2)CC1
Resp: 8.09

Req: Lab request: please report pKi under test system D(3) dopamine receptor (Homo sapiens) for Clc1ccc(-c2cc(C3CCCCN3Cc3ccccc3)[nH]n2)cc1 (centres undefined)
Resp: 5.74

====

pKi: −log10 of the molar value.
Compiled literature pKi, tested on D(3) dopamine receptor (Homo sapiens).

- compound: "COc1ccc(CCN2CCCc3ccccc3C2)cc1Cl"
  target-under-test: "D(3) dopamine receptor (Homo sapiens)"
  pKi: "< 5.00"
- compound: "FC(F)(F)c1cc(Oc2nccc3occc23)ccc1-c1cccc2nccn12"
  target-under-test: "D(3) dopamine receptor (Homo sapiens)"
  pKi: "< 5.00"
- compound: "C1CCC(CN[C@H]2C3C4CC5C6C4CC3C6C52)CC1 (stereo not given in full)"
  target-under-test: "D(3) dopamine receptor (Homo sapiens)"
  pKi: "< 5.00"
- compound: "COc1ccccc1N1CCCN(CCCCNC(=O)c2ccc(-c3ccc(F)cc3)s2)CC1"
  target-under-test: "D(3) dopamine receptor (Homo sapiens)"
  pKi: 8.10

For the next question, use this compound.
Req: Lab request: please report pKi under test system D(3) dopamine receptor (Homo sapiens) for CCCCNC(=O)c1ccc2c(c1)[C@H]1OCCN(CCC)[C@@H]1CC2
Resp: < 5.00

====

Compiled literature Ki, tested on D(3) dopamine receptor (Homo sapiens).
# strict inequality: Ki < 0.01 µM yields Fulfilled, everything else yields Not fulfilled

Please review the following examples before continuing.
- molecule: "COc1ccc2c(c1)[C@H]1OCCN(CCCCNC(=O)c3ccc([N+](=O)[O-])cc3)[C@@H]1CO2 (racemic)"
  target-under-test: "D(3) dopamine receptor (Homo sapiens)"
  group-label: "Not fulfilled"
- molecule: "CCCN1CCc2cccc3c2C1Cc1cccc(OCc2cn(CCCN4CCN(c5cccc(Cl)c5Cl)CC4)nn2)c1-3 (racemic)"
  target-under-test: "D(3) dopamine receptor (Homo sapiens)"
  group-label: "Not fulfilled"
- molecule: "CC(=O)Nc1ccc(CCN2CC3COc4ccc(C#N)cc4C3C2)cc1 (centres undefined)"
  target-under-test: "D(3) dopamine receptor (Homo sapiens)"
  group-label: "Fulfilled"

Req: State whether 0.01 µM exceeds Ki recorded for O=C1CCc2ccccc2N1CCCN1CCN(c2cccc([N+](=O)[O-])c2)CC1 .
Resp: Not fulfilled

Req: State whether 0.01 µM exceeds Ki recorded for O=C(NCCCCN1CCN(c2ccccc2F)CC1)c1ccc2ccccc2c1 .
Resp: Fulfilled

Req: State whether 0.01 µM exceeds Ki recorded for CCC[C@H]1CN(Cc2ccccc2)C[C@@H]1CNC(=O)c1cc(Cl)c(NC)cc1OC .
Resp: Not fulfilled

Req: State whether 0.01 µM exceeds Ki recorded for CCCN(CCCCNC(=O)c1ccc(-c2ccccc2)cc1)C1CCc2nc(SC)ncc2C1 (centres undefined) .
Resp: Not fulfilled

Req: State whether 0.01 µM exceeds Ki recorded for COc1ccccc1N1CCN(CCCCn2cc(-c3ccc(Br)cc3)nn2)CC1 .
Resp: Not fulfilled
